assay: Therapeutic index, ratio of MCC50 for human HeLa cells to MIC for inhibition of flavodoxin in Helicobacter pylori SS1 assessed as reduction in bacterial growth; assay type: toxicity; details: HeLa cells versus Helicobacter pylori SS1, read-out: TI
Please respond with reported selectivity ratio for every item in the list.

selectivity ratio lookup needed for COc1ccc(C[S+]([O-])c2ccc([N+](=O)[O-])c3nonc23)cc1 (configuration not stated) , thanks.
15

What measured selectivity ratio goes with `O=[N+]([O-])CCc1ccccc1` ?
> 4.7

Given the entry `O/N=C/Cc1cc(C(F)(F)F)cc(C(F)(F)F)c1` , report its measured selectivity ratio.
> 2.1

Name the reported selectivity ratio value associated with the compound O/N=C1\Cc2cc(Cl)cc(Cl)c2OC1c1ccc(F)cc1 (configuration not stated)
10

Give its selectivity ratio value. Item: `COc1ccc(CS(=O)(=O)c2ccc(N)c3nonc23)cc1`
> 10

Reported selectivity ratio for COc1ccc(C[S+]([O-])c2ccc(N)c3nonc23)cc1 (configuration not stated) : what is it?
> 9.5

Which selectivity ratio is reported for this compound? `O=[N+]([O-])/C=C/c1c(F)cc(Cl)cc1F`
16

Endpoint output: selectivity ratio of Cc1ncc([N+](=O)[O-])n1CCO [METRONIDAZOLE] . Value?
> 345

Name the reported selectivity ratio value associated with the compound NCCc1ccccc1 [PHENETHYLAMINE]
> 7.6

What selectivity ratio value was documented for this compound, `O=[N+]([O-])CCc1cc(C(F)(F)F)cc(C(F)(F)F)c1` ?
> 4.5

Need selectivity ratio, item `O=[N+]([O-])/C=C/c1cc(C(F)(F)F)cc(C(F)(F)F)c1`
8.3

For the compound `COc1ccc(CSc2cc(Cl)c(N)c3nonc23)cc1` , what selectivity ratio is on record?
> 170

* * *

For each entry below, report its log10 of MIC value.
target: Flavodoxin (Helicobacter pylori (strain ATCC 700392 / 26695) (Campylobacter pylori)); test: Inhibition of flavodoxin in Helicobacter pylori ATCC 700392 26695 assessed as reduction in bacterial growth measured after 48 hrs by resazurin staining-based microdilution method; settings: Helicobacter pylori 26695
Reminder: these figures are log10 of reported MIC, in µM before transformation.

Recorded log10 of MIC of `O/N=C/Cc1cc(C(F)(F)F)cc(C(F)(F)F)c1` , please.
2.07

Recorded log10 of MIC for `COc1ccc(CSc2cc(Cl)c(N)c3nonc23)cc1` , please?
0.77

Consider the compound shown here: NCCc1ccccc1 [PHENETHYLAMINE] What is its recorded log10 of MIC?
1.82

I have this compound here, O/N=C1\Cc2cc(Cl)cc(Cl)c2OC1c1ccc(F)cc1 (centres undefined) , and I need its recorded log10 of MIC.
0.79

Value lookup for log10 of MIC; key = `COc1ccc(CS(=O)(=O)c2ccc(N)c3nonc23)cc1`
2.00

I would be grateful if you could share the reported log10 of MIC for `O=[N+]([O-])CCc1ccccc1` .
2.03

Look up log10 of MIC for this compound: `Cc1ncc(N)n1CCO`
2.66

Param item = Cc1ncc([N+](=O)[O-])n1CCO [METRONIDAZOLE] ; retrieve measured log10 of MIC.
1.08

Value lookup for log10 of MIC; key = `NCCc1cc(C(F)(F)F)cc(C(F)(F)F)c1`
1.49

Looking for the measured log10 of MIC of COc1ccc(C[S+]([O-])c2ccc(N)c3nonc23)cc1 (centres undefined) , can you help?
1.41

Quick one: log10 of MIC of COc1ccc(C[S+]([O-])c2ccc([N+](=O)[O-])c3nonc23)cc1 (centres undefined) ?
0.78

Look up log10 of MIC: `COc1ccc(CSc2ccc([N+](=O)[O-])c3nonc23)cc1`
0.80

Recorded log10 of MIC for `COc1ccc(CSc2ccc(N)c3nonc23)cc1` , please?
1.44

Looking for the measured log10 of MIC of `COc1ccc(C2(C)SCc3cc(C)c(C)cc3CS2)cc1` , can you help?
0.48

# input compound: `O=[N+]([O-])/C=C/c1cc(C(F)(F)F)cc(C(F)(F)F)c1` ; wanted: its log10 of MIC
0.26

Endpoint output: log10 of MIC of `O=[N+]([O-])/C=C/c1c(F)cc(Cl)cc1F` . Value?
0.36

Using the record for `O=[N+]([O-])CCc1cc(C(F)(F)F)cc(C(F)(F)F)c1` , report its log10 of MIC.
1.75

Item under review: O=[N+]([O-])C1=Cc2cc(Cl)cc(Cl)c2OC1c1ccc(F)cc1 (centres undefined) . Reported log10 of MIC?
-0.43
